test system: 941728-121-R-J1-PDC complex spheroid viability; test: Anticancer human tumor 941728-121-R-J1-PDC patient-derived lung adenocarcinoma cell line growth inhibition [RAS]; conditions: curve of first compound; second compound 0.00316 µM;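 further: spheroids exposed to compounds for 7 days before readout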
pIC50: −log10 of the molar value.
valueType: pIC50

Reported pIC50 for 941728-121-R-J1-PDC complex spheroid viability, given C[C@@H](NC(=O)c1ncnc(N)c1Cl)c1ncc(C(=O)Nc2cc(C(F)(F)F)c(Cl)cn2)s1 + C=CC(=O)N1CCN(c2nc(OCC3CCCN3C)nc3c(F)c(-c4nc(N)cc(C)c4C(F)(F)F)c(Cl)cc23)C(C)C1 ?
> 7.50

Entry to check: CC1(C)CCC(Nc2ncc(C(F)(F)F)c(-c3c[nH]c4c(P(C)(C)=O)c(C#N)ccc34)n2)CN1 (stereo not given) + C=CC(=O)N1CCN(c2nc(OCC3CCCN3C)nc3c(F)c(-c4nc(N)cc(C)c4C(F)(F)F)c(Cl)cc23)C(C)C1
> 9.02

Entry to check: CC(=O)OC12COC1CC(O)C1(C)C(=O)C(O)C3=C(C)C(OC(=O)C(O)C(NC(=O)OC(C)(C)C)c4ccccc4)CC(O)(C(OC(=O)c4ccccc4)C21)C3(C)C (stereo not given) + C=CC(=O)N1CCN(c2nc(OCC3CCCN3C)nc3c(F)c(-c4nc(N)cc(C)c4C(F)(F)F)c(Cl)cc23)C(C)C1
> 7.50

Entry to check: CC(Nc1ccc2c(c1)OCCn1cc(N3C(=O)OCC3C(F)F)nc1-2)C(N)=O (stereo not given) + C=CC(=O)N1CCN(c2nc(OCC3CCCN3C)nc3c(F)c(-c4nc(N)cc(C)c4C(F)(F)F)c(Cl)cc23)C(C)C1
> 7.50

Entry to check: O=C(c1ccc(F)c(F)c1Nc1ccc(I)cc1F)N1CC(O)([C@@H]2CCCCN2)C1 + C=CC(=O)N1CCN(c2nc(OCC3CCCN3C)nc3c(F)c(-c4nc(N)cc(C)c4C(F)(F)F)c(Cl)cc23)C(C)C1
> 8.50

Entry to check: CC(C)NCC(C(=O)N1CCN(c2ncnc3c2C(C)CC3O)CC1)c1ccc(Cl)cc1 (stereo not given) + C=CC(=O)N1CCN(c2nc(OCC3CCCN3C)nc3c(F)c(-c4nc(N)cc(C)c4C(F)(F)F)c(Cl)cc23)C(C)C1
> 7.50

Entry to check: Nc1ccn(C2OC(CO)C(O)C2(F)F)c(=O)n1 (stereo not given) + C=CC(=O)N1CCN(c2nc(OCC3CCCN3C)nc3c(F)c(-c4nc(N)cc(C)c4C(F)(F)F)c(Cl)cc23)C(C)C1
> 8.50

Entry to check: C=CC(=O)Nc1cc(Nc2nccc(-c3cn(C)c4ccccc34)n2)c(OC)cc1N(C)CCN(C)C + C=CC(=O)N1CCN(c2nc(OCC3CCCN3C)nc3c(F)c(-c4nc(N)cc(C)c4C(F)(F)F)c(Cl)cc23)C(C)C1
> 8.50

Entry to check: Cc1nc(N2CCC3(CC2)COC(C)C3N)c(CO)nc1Sc1ccnc(N)c1Cl (stereo not given) + C=CC(=O)N1CCN(c2nc(OCC3CCCN3C)nc3c(F)c(-c4nc(N)cc(C)c4C(F)(F)F)c(Cl)cc23)C(C)C1
> 7.50

Entry to check: CCC(CC)c1cc(NC2CCC(N)C2)n2nccc2n1 (stereo not given) + C=CC(=O)N1CCN(c2nc(OCC3CCCN3C)nc3c(F)c(-c4nc(N)cc(C)c4C(F)(F)F)c(Cl)cc23)C(C)C1
> 7.50

Entry to check: CCN1CCN(Cc2ccc(Nc3ncc(F)c(-c4cc(F)c5nc(C)n(C(C)C)c5c4)n3)nc2)CC1 + C=CC(=O)N1CCN(c2nc(OCC3CCCN3C)nc3c(F)c(-c4nc(N)cc(C)c4C(F)(F)F)c(Cl)cc23)C(C)C1
> 8.50

Entry to check: CC1(O)CCCC1n1c(=O)c(C(F)F)cc2cnc(NC3CCN(S(C)(=O)=O)CC3)nc21 (stereo not given) + C=CC(=O)N1CCN(c2nc(OCC3CCCN3C)nc3c(F)c(-c4nc(N)cc(C)c4C(F)(F)F)c(Cl)cc23)C(C)C1
> 7.50

Sourced from PubChem BioAssay AID2060896
